# recombinant barcode read abundance (log10) values compiled below
- experiment: recombinant barcode read abundance after kanamycin selection (control-corrected) (log10(CPM+1)); higher = more efficient recombination; sequences stand for … in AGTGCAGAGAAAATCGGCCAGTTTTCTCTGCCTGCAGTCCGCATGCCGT…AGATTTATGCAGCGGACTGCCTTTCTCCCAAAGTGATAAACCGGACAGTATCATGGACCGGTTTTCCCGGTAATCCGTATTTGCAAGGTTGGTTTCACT; site = the 11-nt target;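 also: IS621 recombinase and bridge RNA in Escherichia coli cells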
reportedMetric: recombinant barcode read abundance (log10)

• CGCTAGTCTTGGGTTCTAACCTGTTGCCT (site CGCTAGTCTAG) = 0.451
• TATATGACTTGGGTTCTAACCTGTTGCGG (site TATATGACTCC) = 1.41
• AACCCACCTTGGGTTCTAACCTGTTGCCT (site AACCCACCTAG) = 1.97
• CGCTCATCTTGGGTTCTAACCTGTTGCCT (site CGCTCATCTAG) = 0.0416
• GACCAGCCTTGGGTTCTAACCTGTTGCGT (site GACCAGCCTAC) = 2.4
• TACGCTCCTTGGGTTCTAACCTGTTGCGT (site TACGCTCCTAC) = 0.108
• TACGGTCCTTGGGTTCTAACCTGTTGCTT (site TAGGCTCCTAA) = 0.261
• TCCGCTTCTTGGGTTCTAACCTGTTGCCT (site TCCGCTCCTAG) = 0.259
• ATCTATCCTTGGGTTCTAACCTGTTGCAT (site ATCTATCCTAT) = 0.198
• GTAGGCGCTTGGGTTCTAACCTGTTGCCT (site GTCGGCGCTAG) = 0.33
• CATCGCACTTGGGTTCTAACCTGTTGCCT (site CGTCGCACTAG) = 0.153
• ATTGGTCCTTGGGTTCTAACCTGTTGCCT (site ATAGGTCCTAG) = 0.994
• GGCGATCCTTGGGTTCTAACCTGTTGCCT (site GTCGATCCTAG) = 0.059
• TAGAACCCTTGGGTTCTAACCTGTTGCTT (site TAGATCCCTAA) = 0.0967
• GAACAGCCTTGGGTTCTAACCTGTTGCGT (site ATTGCTACTTG) = 0.278
• GTAGGGACTTGGGTTCTAACCTGTTGCCT (site GTAGGGACTAG) = 1.97
• AGTAAGCCTTGGGTTCTAACCTGTTGCCT (site AGTTAGCCTAG) = 0.173
• TGGACCACTTGGGTTCTAACCTGTTGCCT (site TGGATCACTAG) = 0.0342
• TACTTAGCTTGGGTTCTAACCTGTTGCCG (site TACTTAGCTCG) = 0.075
• CTTGGACCTTGGGTTCTAACCTGTTGCCT (site CTTGGAGCTAG) = 0.0408
• CGTGCAGCTTGGGTTCTAACCTGTTGCCT (site CGCGCAGCTAG) = 0.137
• AGGTAACCTTGGGTTCTAACCTGTTGCCT (site TGGTAACCTAG) = 0.179
• GACTTGCCTTGGGTTCTAACCTGTTGCCT (site GACTTGACTAG) = 0.023
• CGGACGACTTGGGTTCTAACCTGTTGCCT (site CGGACGTCTAG) = 0.111
• GCGCGAACTTGGGTTCTAACCTGTTGCCT (site GCGCGAACTAG) = 0.608
• GCGGAATCTTGGGTTCTAACCTGTTGCCT (site TCGGAATCTAG) = 0.469
• GGGAACCCTTGGGTTCTAACCTGTTGCTG (site GGGAACCCTCA) = 1.5
• TCCTCGTCTTGGGTTCTAACCTGTTGCCT (site TCCTCGTCTAG) = 0.669
• AGCAGGTCTTGGGTTCTAACCTGTTGCCT (site AACAGGTCTAG) = 0.109
• CGCAATGCTTGGGTTCTAACCTGTTGCCT (site CGGAATGCTAG) = 0.469
• GCCCCGCCTTGGGTTCTAACCTGTTGCAG (site GCCCCGCCTCT) = 1.02
• CCTCACTCTTGGGTTCTAACCTGTTGCTT (site CCTCAATCTAA) = 0.058
• GGATAGCCTTGGGTTCTAACCTGTTGCCT (site CGATAGCCTAG) = 0.0205
• GAGCGAGCTTGGGTTCTAACCTGTTGCAT (site GAGAGAGCTAT) = 0.0856
• TAGTACCCTTGGGTTCTAACCTGTTGCAT (site TAGTACCCTTT) = 0.227
• CTGCAGACTTGGGTTCTAACCTGTTGCCG (site CTGCAGACTCG) = 0.41
• GATCGATCTTGGGTTCTAACCTGTTGCTT (site GATCGATCTAA) = 0.349
• TACTACCCTTGGGTTCTAACCTGTTGCCT (site TCCTACCCTAG) = 0.126
• GTCTCCTCTTGGGTTCTAACCTGTTGCCT (site GTCACCTCTAG) = 0.0265
• TAAAAGACTTGGGTTCTAACCTGTTGCCT (site TAAAAGCCTAG) = 0.0498
• GAGTCTACTTGGGTTCTAACCTGTTGCAG (site GAGTCTACTCG) = 0.339
• TCGGATACTTGGGTTCTAACCTGTTGCCT (site TCGGATACTAA) = 0.119
